test system: NCI-H23; assay: in vitro non-small cell lung cancer cell growth inhibition (NCI screen)
Recorded cytotoxicity log GI50 values for a group of molecules are listed next.
I only need the number, in M, no unit after it.

Below: 3 molecules and their reported cytotoxicity log GI50.
- molecule: "COC(=O)CCC(=O)NC1=C(NCc2ccccc2)C(=O)c2ccccc2C1=O [Compound 55]"
  valueUnit: "M"
  cytotoxicity log GI50: -4.67
- molecule: "O=C(O)CCCc1nc2c(n1Cc1ccccc1)C(=O)c1ccccc1C2=O [Compound 57]"
  valueUnit: "M"
  cytotoxicity log GI50: -4.50
- molecule: "Cc1nc2c(n1Cc1ccc(F)cc1)C(=O)c1ccccc1C2=O [Compound 19]"
  valueUnit: "M"
  cytotoxicity log GI50: -4.88

Value lookup for cytotoxicity log GI50; key = CC(=O)NC1=C(NCCCl)C(=O)c2ccccc2C1=O [Compound 43]
-4.58

Value lookup for cytotoxicity log GI50; key = COC(=O)CCCC(=O)NC1=C(Nc2ccccc2)C(=O)c2ccccc2C1=O [Compound 52]
-4.97

Value lookup for cytotoxicity log GI50; key = CCn1c(C)nc2c1C(=O)c1ccccc1C2=O [Compound 5]
-5.81

Value lookup for cytotoxicity log GI50; key = Cc1nc2c(n1CCO)C(=O)c1ccccc1C2=O [Compound 16]
-4.82

Value lookup for cytotoxicity log GI50; key = CCNC1=C(NC(=O)c2ccc(F)cc2)C(=O)c2ccccc2C1=O [Compound 48]
-4.46

Value lookup for cytotoxicity log GI50; key = CCNC1=C(NC(=O)c2ccc(OC)cc2)C(=O)c2ccccc2C1=O [Compound 49]
-4.36

Value lookup for cytotoxicity log GI50; key = NC1=C(NC(=O)Cc2ccc(F)cc2)C(=O)c2ccccc2C1=O [Compound 3c]
-4.87

---

system: OVCAR-3; test: in vitro ovarian cancer cell growth inhibition (NCI screen)
readoutType: cytotoxicity log GI50 (M)
I only need the number, in M, no unit after it.

Below: 3 compounds and their reported cytotoxicity log GI50.
- compound: "CCC(C)NC1=C(NC(C)=O)C(=O)c2ccccc2C1=O (stereo not shown)"
  cytotoxicity log GI50 / M: -4.39
- compound: "O=C(O)CCCc1nc2c(n1Cc1ccccc1)C(=O)c1ccccc1C2=O"
  cytotoxicity log GI50 / M: -4.67
- compound: "CCNC1=C(NC(=O)c2ccc(F)cc2)C(=O)c2ccccc2C1=O"
  cytotoxicity log GI50 / M: -4.44

Value lookup for cytotoxicity log GI50; key = CC(=O)NC1=C(NCCO)C(=O)c2ccccc2C1=O
-4.72

Value lookup for cytotoxicity log GI50; key = CCC(C)CNC1=C(NC(C)=O)C(=O)c2ccccc2C1=O (stereo not shown)
-4.25

Value lookup for cytotoxicity log GI50; key = O=C1c2ccccc2C(=O)c2[nH]c(Cc3ccc(F)cc3)nc21
-5.27

Value lookup for cytotoxicity log GI50; key = COC(=O)CCCC(=O)NC1=C(Nc2ccccc2)C(=O)c2ccccc2C1=O
-4.90

Value lookup for cytotoxicity log GI50; key = CCNC1=C(NC(=O)CCl)C(=O)c2ccccc2C1=O
-4.75

Value lookup for cytotoxicity log GI50; key = CCNC1=C(NC(=O)c2ccccc2)C(=O)c2ccccc2C1=O
-4.47

Value lookup for cytotoxicity log GI50; key = Cc1nc2c(n1Cc1ccc(F)cc1)C(=O)c1ccccc1C2=O
-4.82

Value lookup for cytotoxicity log GI50; key = NC1=C(NC(=O)Cc2ccc(F)cc2)C(=O)c2ccccc2C1=O
-4.88

Value lookup for cytotoxicity log GI50; key = CC(=O)NC1=C(NC(C)(C)C)C(=O)c2ccccc2C1=O
-4.81

Value lookup for cytotoxicity log GI50; key = COc1ccc(CNC2=C(NC(C)=O)C(=O)c3ccccc3C2=O)cc1
-5.09

---

system: SF-539; test: in vitro CNS cancer cell growth inhibition (NCI screen)
readoutType: cytotoxicity log GI50 (M)
I only need the number, in M, no unit after it.

Below: 6 compounds and their reported cytotoxicity log GI50.
- compound: "COC(=O)CCCC(=O)NC1=C(Nc2ccc(OC)cc2)C(=O)c2ccccc2C1=O"
  valueUnit: "M"
  valueReported: -4.71
- compound: "CCC(C)Cn1c(C)nc2c1C(=O)c1ccccc1C2=O (stereo not shown)"
  valueUnit: "M"
  valueReported: -4.75
- compound: "COC(=O)CCCC(=O)NC1=C(NCc2ccccc2)C(=O)c2ccccc2C1=O"
  valueUnit: "M"
  valueReported: -4.44
- compound: "O=C(Cc1ccc(F)cc1)NC1=C(Cl)C(=O)c2ccccc2C1=O"
  valueUnit: "M"
  valueReported: -5.65
- compound: "CC(=O)NC1=C(NCCN(C)C)C(=O)c2ccccc2C1=O"
  valueUnit: "M"
  valueReported: -4.93
- compound: "Cc1nc2c(n1Cc1ccc(Cl)cc1)C(=O)c1ccccc1C2=O"
  valueUnit: "M"
  valueReported: -5.60

Value lookup for cytotoxicity log GI50; key = Cc1nc2c(n1Cc1ccc(F)cc1)C(=O)c1ccccc1C2=O
-5.16

Value lookup for cytotoxicity log GI50; key = Cc1nc2c(n1CCC(C)C)C(=O)c1ccccc1C2=O
-4.92

Value lookup for cytotoxicity log GI50; key = O=C(O)CCc1nc2c(n1Cc1ccccc1)C(=O)c1ccccc1C2=O
-4.55

Value lookup for cytotoxicity log GI50; key = O=C1c2ccccc2C(=O)c2[nH]c(Cc3ccccc3F)nc21
-4.51

Value lookup for cytotoxicity log GI50; key = CCn1c(Cc2ccc(F)cc2)nc2c1C(=O)c1ccccc1C2=O
-4.88

Value lookup for cytotoxicity log GI50; key = CC(=O)NC1=C(NCC(C)(C)C)C(=O)c2ccccc2C1=O
-4.48

---

tested on: M19-MEL; assay: in vitro melanoma cell growth inhibition (NCI screen)
readoutType: cytotoxicity log GI50 (M)
I only need the number, in M, no unit after it.

Below: 5 compounds and their reported cytotoxicity log GI50.
- compound: "CCC(C)CNC1=C(NC(C)=O)C(=O)c2ccccc2C1=O (stereo not shown)"
  cytotoxicity log GI50 [M]: -4.68
- compound: "Cc1nc2c(n1Cc1ccc(Cl)cc1)C(=O)c1ccccc1C2=O"
  cytotoxicity log GI50 [M]: -4.93
- compound: "Cc1nc2c(n1CCC(C)C)C(=O)c1ccccc1C2=O"
  cytotoxicity log GI50 [M]: -4.84
- compound: "CCC(C)Cn1c(C)nc2c1C(=O)c1ccccc1C2=O (stereo not shown)"
  cytotoxicity log GI50 [M]: -4.74
- compound: "COc1ccc(CNC2=C(NC(C)=O)C(=O)c3ccccc3C2=O)cc1"
  cytotoxicity log GI50 [M]: -5.02

Shift focus to the following entry.
What cytotoxicity log GI50 appears in the records for this compound with M19-MEL? Cc1nc2c(n1C(C)(C)C)C(=O)c1ccccc1C2=O
-4.61

---

system: LOX1MVI; assay: in vitro melanoma cell growth inhibition (NCI screen)
readoutType: cytotoxicity log GI50
Answer shape: numeric part, then the unit.

Below: 10 compounds and their reported cytotoxicity log GI50.
- compound: "CC(=O)NC1=C(NC(C)(C)C)C(=O)c2ccccc2C1=O"
  valueReported: "-4.78 M"
- compound: "COC(=O)CCC(=O)NC1=C(Nc2ccc(OC)cc2)C(=O)c2ccccc2C1=O"
  valueReported: "-5.41 M"
- compound: "COc1ccc(Cn2c(C)nc3c2C(=O)c2ccccc2C3=O)cc1"
  valueReported: "-5.60 M"
- compound: "CCC(C)Cn1c(C)nc2c1C(=O)c1ccccc1C2=O (centres unmarked)"
  valueReported: "-4.71 M"
- compound: "COc1ccc(CNC2=C(NC(C)=O)C(=O)c3ccccc3C2=O)cc1"
  valueReported: "-5.07 M"
- compound: "CC(=O)NC1=C(NCC(C)C)C(=O)c2ccccc2C1=O"
  valueReported: "-4.81 M"
- compound: "CCCC(C)n1c(C)nc2c1C(=O)c1ccccc1C2=O (centres unmarked)"
  valueReported: "-5.06 M"
- compound: "Cc1nc2c(n1C(C)(C)C)C(=O)c1ccccc1C2=O"
  valueReported: "-4.38 M"
- compound: "Cc1nc2c(n1Cc1ccc(F)cc1)C(=O)c1ccccc1C2=O"
  valueReported: "-5.14 M"
- compound: "O=C(O)CCc1nc2c(n1Cc1ccccc1)C(=O)c1ccccc1C2=O"
  valueReported: "-4.57 M"

Shift focus to the following entry.
Value lookup for cytotoxicity log GI50; key = COc1ccc(-n2c(CCC(=O)O)nc3c2C(=O)c2ccccc2C3=O)cc1
-4.55 M

---

Recorded cytotoxicity log GI50 values for a group of molecules are listed next.
tested on: SK-MEL-5; assay: in vitro melanoma cell growth inhibition (NCI screen)
I only need the number, in M, no unit after it.

- smilesRecord: "CCn1c(-c2ccccc2)nc2c1C(=O)c1ccccc1C2=O"
  targetOrTestSystem: "SK-MEL-5"
  cytotoxicity log GI50 (M): -4.95

What cytotoxicity log GI50 appears in the records for this molecule with SK-MEL-5? Cc1nc2c(n1C(C)(C)C)C(=O)c1ccccc1C2=O
-4.41

What cytotoxicity log GI50 appears in the records for this molecule with SK-MEL-5? CCNC1=C(NC(=O)c2ccc(F)cc2)C(=O)c2ccccc2C1=O
-4.46

What cytotoxicity log GI50 appears in the records for this molecule with SK-MEL-5? CC(=O)NC1=C(NCCO)C(=O)c2ccccc2C1=O
-4.53

What cytotoxicity log GI50 appears in the records for this molecule with SK-MEL-5? CCn1c(CCl)nc2c1C(=O)c1ccccc1C2=O
-6.38
